# tested.system: JAK2 (Homo sapiens, UniProt O60674)
# Sequence (O60674 whole entry): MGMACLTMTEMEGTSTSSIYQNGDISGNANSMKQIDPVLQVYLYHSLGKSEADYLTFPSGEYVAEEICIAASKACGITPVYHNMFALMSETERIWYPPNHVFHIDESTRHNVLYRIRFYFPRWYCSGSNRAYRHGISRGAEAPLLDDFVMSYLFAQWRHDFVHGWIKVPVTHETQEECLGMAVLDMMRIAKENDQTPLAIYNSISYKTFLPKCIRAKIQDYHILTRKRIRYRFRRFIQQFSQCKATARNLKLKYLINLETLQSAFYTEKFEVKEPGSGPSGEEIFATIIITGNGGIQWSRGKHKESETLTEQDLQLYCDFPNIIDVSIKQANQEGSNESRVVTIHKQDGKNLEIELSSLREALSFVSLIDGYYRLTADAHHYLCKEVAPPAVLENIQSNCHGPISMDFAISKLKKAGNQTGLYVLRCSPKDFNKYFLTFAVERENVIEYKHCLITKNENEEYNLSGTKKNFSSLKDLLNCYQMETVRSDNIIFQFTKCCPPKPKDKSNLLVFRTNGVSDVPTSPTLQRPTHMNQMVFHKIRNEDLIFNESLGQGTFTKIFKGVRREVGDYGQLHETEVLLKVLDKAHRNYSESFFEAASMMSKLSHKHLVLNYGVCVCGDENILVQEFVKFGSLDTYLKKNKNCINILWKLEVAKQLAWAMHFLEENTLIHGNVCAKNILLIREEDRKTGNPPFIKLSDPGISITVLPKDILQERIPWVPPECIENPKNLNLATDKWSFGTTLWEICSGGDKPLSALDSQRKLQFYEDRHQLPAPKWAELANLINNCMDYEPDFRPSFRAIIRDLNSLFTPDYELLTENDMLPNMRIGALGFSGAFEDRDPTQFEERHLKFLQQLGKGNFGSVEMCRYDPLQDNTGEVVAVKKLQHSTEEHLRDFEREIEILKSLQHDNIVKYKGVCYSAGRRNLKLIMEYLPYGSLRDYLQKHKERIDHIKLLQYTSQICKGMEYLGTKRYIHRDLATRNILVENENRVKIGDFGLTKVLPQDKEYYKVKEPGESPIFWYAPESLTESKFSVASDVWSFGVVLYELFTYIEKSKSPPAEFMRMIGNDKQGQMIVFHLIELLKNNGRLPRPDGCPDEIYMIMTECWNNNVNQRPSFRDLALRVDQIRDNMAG
# procedure.details: Lance Ultra Kinase Assay, recombinant JAK2
# assay.setup: 5 mM ATP
Parameter IC50: see the listing below.
observed.property: IC50

INSERT INTO results (compound, observed_property, recorded_result) VALUES
  ('COC[C@H](C(=O)Nc1cccc2c(-c3nc(Nc4ccnc(CO)c4)ncc3F)c[nH]c12)N1CCN(C)CC1', 'IC50', '202 nM'),
  ('CCOC(=O)c1ccc(Nc2ncc(F)c(-c3c[nH]c4c(NC(=O)[C@@H](COC)N5CCN(C)CC5)cccc34)n2)cn1', 'IC50', '491 nM'),
  ('COC[C@H](C(=O)Nc1cccc2c(-c3nc(Nc4ccc(C(C)O)nc4)ncc3F)c[nH]c12)N1CCN(C)CC1 (single isomer, unassigned; isomer 1) [Example 29]', 'IC50', '74 nM'),
  ('COC[C@H](C(=O)Nc1cccc2c(-c3nc(Nc4ccc5ncoc5c4)ncc3F)c[nH]c12)N1CCN(C)CC1', 'IC50', '119 nM'),
  ('CNC(=O)Cc1ccc(Nc2ncc(F)c(-c3c[nH]c4c(NC(=O)[C@@H](COC)N5CCN(C)CC5)cccc34)n2)cn1', 'IC50', '316 nM');
